Data provenance: paper PMC5591855

system: mechano-electrical transducer (MET) channel; construct: native channel in CD-1 mouse cochlear outer hair cells (organotypic cultures); assay: whole-cell patch clamp of MET currents, extracellular block at -104 mV, […] Ca2+; format: cell-based, Mus musculus; details: read-out: Kd
Measured endpoint: IC50

Exam item: Returns the measured IC50 for the input molecule. Input: COc1cc2c3cc1Oc1cc(ccc1O)C[C@@H]1c4c(cc(OC)c(O)c4Oc4ccc(cc4)C[C@@H]3N(C)CC2)CC[N+]1(C)C [dTC, d-Tubocurarine]
Marked response: 2200 nM
